I'd appreciate it if you could supply MICantibiotic values for the items below.
system: E. coli; assay: Checkerboard assay (antibiotic potentiation); format: cell-based, Escherichia coli; settings: E. coli 94474 (colistin-resistant); antibiotic alone
Answers are plain numbers, in µg/mL.

Past entries and their recorded results:
C[C@@H]1CN2c3c(cc4c(N5C(=O)OC[C@@H]5C)noc4c3F)CC3(C(=O)NC(=O)NC3=O)[C@H]2[C@H](C)O1 64
CN(C)c1ccc(O)c2c1C[C@H]1C[C@H]3[C@H](N(C)C)C(O)=C(C(N)=O)C(=O)[C@@]3(O)C(O)=C1C2=O 64
C[C@H]1COc2c(N3CCN(C)CC3)c(F)cc3c(=O)c(C(=O)O)cn1c23 16
CO[C@H]1/C=C/O[C@@]2(C)Oc3c(C)c(O)c4c(O)c(c(/C=N/N5CCN(C)CC5)c(O)c4c3C2=O)NC(=O)/C(C)=C\C=C\[C@H](C)[C@H](O)[C@@H](C)[C@@H](O)[C@@H](C)[C@H](OC(C)=O)[C@@H]1C 8

# input for lookup
Record summary for `CC(C)(O/N=C(\C(=O)N[C@@H]1C(=O)N2C(C(=O)[O-])=C(C[n+]3ccccc3)CS[C@H]12)c1csc(N)n1)C(=O)O` : reported MICantibiotic = 0.5
